Test system: Morganella morganii
ASSAY EXPLANATION: In vitro antibacterial activity measured as minimum inhibitory concentration was evaluated on morganella morganii ATCC 8019 (Mm).
Format: functional
COND: Morganella morganii, ATCC 8019; read-out: MIC
VALUE KIND: MIC (µg/mL)

// known answers, use as guide
Value lookup for MIC; key = "C[C@@H]1[C@@H](N)CN1c1c(F)cc2c(=O)c(C(=O)O)cn(-c3ccc(F)cc3)c2c1F"
0.12

# iterate: "C[C@H]1COc2c(N3CC(C)(N(C)C)C3)c(F)cc3c(=O)c(C(=O)O)cn1c23"
0.25

# iterate: C[C@H]1[C@H](N)CN1c1nc2c(cc1F)c(=O)c(C(=O)O)cn2C1CC1 (single isomer, unassigned)
0.015

# iterate: "C[C@@H]1[C@@H](N)CN1c1nc2c(cc1F)c(=O)c(C(=O)O)cn2-c1ccc(F)cc1F"
1

# iterate: "Cc1c(F)c(N2C[C@H](N)[C@H]2C)nc2c1c(=O)c(C(=O)O)cn2C1CC1"
0.12

# iterate: "C[C@@H]1[C@@H](N)CN1c1c(F)cc2c(=O)c(C(=O)O)cn3c2c1OC[C@@H]3C"
0.12

# iterate: CC1COc2c(N3CC(C)(N)C3)c(F)cc3c(=O)c(C(=O)O)cn1c23 (single isomer, unassigned)
8

# iterate: "CNC1(C)CN(c2c(F)cc3c(=O)c(C(=O)O)cn4c3c2OC[C@@H]4C)C1"
0.06

[a] CC1C(N)CN1c1c(F)c(N)c2c(=O)c(C(=O)O)cn(C3CC3)c2c1F (stereo not drawn)
[b] C[C@H](N)C(=O)N[C@@H](C)C(=O)N[C@@H]1CN(c2nc3c(cc2F)c(=O)c(C(=O)O)cn3C2CC2)[C@H]1C
// compare: a vs b , metric MIC, want the smaller Pick one and reply with its label.
a
(a: 0.015 µg/mL, b: 4 µg/mL)

----------
Tested on: Proteus vulgaris
ASSAY EXPLANATION: In vitro antibacterial activity measured as minimum inhibitory concentration was evaluated on proteus vulgaris ATCC 8427 (Pv).
Type: functional
COND: Proteus vulgaris, ATCC 8427; read-out: MIC
VALUE KIND: MIC (µg/mL)

[A] C[C@H]1COc2c(N3CC(N(C)C)C3)c(F)cc3c(=O)c(C(=O)O)cn1c23
[B] C[C@H]1COc2c(N3CC(C)(N(C)C)C3)c(F)cc3c(=O)c(C(=O)O)cn1c23
// compare: A vs B , metric MIC, want the smaller Pick one and reply with its label.
A
(A: 0.25 µg/mL, B: 0.5 µg/mL)

----------
System: Escherichia coli
ASSAY EXPLANATION: In vitro antibacterial activity measured as minimum inhibitory concentration, was evaluated on Escherichia coli ATCC 23559(Ec).
Type: functional
COND: Escherichia coli, ATCC 23559; read-out: MIC
VALUE KIND: MIC (µg/mL)

// known answers, use as guide
Value lookup for MIC; key = "CNC1(C)CN(c2c(F)cc3c(=O)c(C(=O)O)cn4c3c2OC[C@@H]4C)C1"
0.015

# iterate: "C[C@@H]1[C@@H](N)CN1c1c(F)cc2c(=O)c(C(=O)O)cn(-c3ccc(F)cc3F)c2c1Cl"
0.25

# iterate: CC1C(N)CN1c1cc2c(cc1F)c(=O)c(C(=O)O)cn2-c1ccc(F)cc1F (stereo not drawn)
0.06

[1] CC1C(N)CN1c1c(F)cc2c(=O)c(C(=O)O)cn(-c3ccc(F)cc3)c2c1F (stereo not drawn)
[2] C[C@H]1[C@H](N)CN1c1cc2c(cc1F)c(=O)c(C(=O)O)cn2-c1ccc(F)cc1F (single isomer, unassigned)
Between 1 and 2 , whose measured MIC reads higher? Pick one and reply with its label.
1
(1: 0.12 µg/mL, 2: 0.06 µg/mL)

[I] CC1C(N)CN1c1c(F)cc2c(=O)c(C(=O)O)cn(-c3ccc(F)cc3F)c2c1Cl (stereo not drawn)
[II] C[C@@H]1[C@@H](N)CN1c1c(F)cc2c(=O)c(C(=O)O)cn(-c3ccc(F)cc3)c2c1F
[III] CC1C(N)CN1c1c(F)cc2c(=O)c(C(=O)O)cn(C3CC3)c2c1Cl (stereo not drawn)
Sort entries by MIC from minimum to maximum value. Answer by writing out the labels in the requested order.
III, I, II
(III: 0.015 µg/mL, I: 0.03 µg/mL, II: 0.06 µg/mL)

[I] C[C@@H]1[C@@H](N)CN1c1nc2c(cc1F)c(=O)c(C(=O)O)cn2-c1ccc(F)cc1F
[II] C[C@H]1[C@H](N)CN1c1nc2c(cc1F)c(=O)c(C(=O)O)cn2C1CC1 (single isomer, unassigned)
// compare: I vs II , metric MIC, want the smaller Pick one and reply with its label.
II
(II: 0.015 µg/mL, I: 0.5 µg/mL)
